- measured.on: follicle-stimulating hormone (FSH) receptor (Rattus norvegicus, UniProt P20395)
- Construct: Rat Granulosa EC50 FSH (Assay B); endogenous in cells
- Sequence (P20395 18-692): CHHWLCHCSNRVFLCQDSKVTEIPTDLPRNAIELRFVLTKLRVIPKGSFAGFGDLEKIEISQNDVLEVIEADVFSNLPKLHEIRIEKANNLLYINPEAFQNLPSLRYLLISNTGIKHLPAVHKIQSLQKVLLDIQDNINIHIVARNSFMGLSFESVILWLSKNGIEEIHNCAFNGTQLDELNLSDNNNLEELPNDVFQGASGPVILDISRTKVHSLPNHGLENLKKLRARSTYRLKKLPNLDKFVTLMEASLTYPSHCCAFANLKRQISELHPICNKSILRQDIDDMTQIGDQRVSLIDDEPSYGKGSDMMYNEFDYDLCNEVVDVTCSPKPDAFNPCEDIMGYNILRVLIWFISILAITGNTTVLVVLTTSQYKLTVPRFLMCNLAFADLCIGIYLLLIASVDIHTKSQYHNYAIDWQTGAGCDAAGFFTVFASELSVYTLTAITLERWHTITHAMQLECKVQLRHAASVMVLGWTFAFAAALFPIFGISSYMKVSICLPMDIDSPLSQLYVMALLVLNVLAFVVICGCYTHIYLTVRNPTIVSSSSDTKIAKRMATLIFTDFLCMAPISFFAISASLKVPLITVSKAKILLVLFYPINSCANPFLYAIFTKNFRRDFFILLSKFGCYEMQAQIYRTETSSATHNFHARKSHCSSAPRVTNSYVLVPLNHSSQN
- test.details: Rat Granulosa EC50 FSH (Assay B)
- measurement.conditions: rat granulosa cells, per Yanofsky et al. 2006
pEC50: −log10 of the molar value.
Known pEC50 of a selection of molecules
readout.kind: pEC50

{"molecule": "COc1cc2c(cc1OC(C)C)-n1c(-c3cccs3)nc(C(=O)N3CCOCC3(C)C)c1CO2 [Compound 139]", "readout.kind": "pEC50", "value.measured": "6.00 to 7.00"}
{"molecule": "[2H]C([2H])([2H])Oc1cc2c(cc1CC(C)C)-n1c(-c3ccsc3)nc(C(=O)N3CCOCC3(C)C)c1CC2 [Compound 41]", "readout.kind": "pEC50", "value.measured": "5.30 to 6.00"}
{"molecule": "[2H]C([2H])([2H])n1cc(-c2cc3c(cc2OC)CCc2c(C(=O)N4CCOCC4(C)C)nc(-c4cccn4C)n2-3)cn1 [Compound 149]", "readout.kind": "pEC50", "value.measured": "5.30 to 6.00"}
{"molecule": "[2H]C([2H])([2H])OCC(C)(C)N(C(=O)c1nc(-c2cccs2)n2c1CCc1cc(OC)c(CC(C)C)cc1-2)C([2H])([2H])[2H] [Compound 32]", "readout.kind": "pEC50", "value.measured": "< 5.30"}
{"molecule": "COc1cc2c(cc1CC(C)C)-n1c(-c3cccs3)nc(C(=O)N(C)CCN3CCOC3=O)c1CC2 [Compound 25]", "readout.kind": "pEC50", "value.measured": "6.00 to 7.00"}
{"molecule": "COc1cc2c(cc1CC(C)C)-n1c(-c3ccc(F)s3)nc(C(=O)N3CCOCC3(C)C)c1CC2 [Compound 19]", "readout.kind": "pEC50", "value.measured": "6.00 to 7.00"}
